# System: human erythrocytes
# experimentalProtocol: Hemolysis assay
# Assay type: cell-based
# conditionDetails: red cells of human, 1 h
Numbered stars: 1 amine (or outer) side, 2 acyl side, 3 side chain; on linkers, the order of the positions; unused ones are H or OH. Square brackets hold non-standard residues; d marks the D form. Peptide text beside a SMILES is read from it. Gly(N-CH2CH2-imidazol-4-yl) = O=C(O)CNCCc1c[nH]cn1; X3 = C[C@@H](c1ccc2ccccc2c1)N(CC(=O)[*:2])[*:1]; N(1S-Me-propyl)Gly = CC[C@H](C)NCC(=O)O; X2 = CCC[C@H](C)N(CC(=O)[*:2])[*:1]; Nspe = C[C@H](NCC(=O)O)c1ccccc1; Nlys = NCCCCNCC(=O)O
measuredQuantity: HD50 (50% hemolytic dose)

Completed entries (count: 5):
compound	testedSystem	reportedResult
C[C@@H](c1ccccc1)N(CC(N)=O)C(=O)CN(C(=O)CN(CCCCN)C(=O)CN(C(=O)CN(C(=O)CN(CCCCN)C(=O)CN(C(=O)CN(C(=O)CNCCCCN)[C@@H](C)c1ccccc1)[C@@H](C)c1ccccc1)[C@@H](C)c1ccccc1)[C@@H](C)c1ccccc1)[C@@H](C)c1ccccc1 [19 mer, H-(Nlys-Nspe-Nspe)3-NH2] (H-[Nlys][Nspe][Nspe][Nlys][Nspe][Nspe][Nlys][Nspe][Nspe]-NH2)	human erythrocytes	>150/>150 μM
C[C@@H](c1ccccc1)N(CC(N)=O)C(=O)CN(C(=O)CN(C(=O)CN(C(=O)CN(C(=O)CN(C(=O)CN(C(=O)CN(C(=O)CN(CCCCN)C(=O)CN(CCCCN)C(=O)CN(CCCCN)C(=O)CNCCCCN)[C@@H](C)c1ccccc1)[C@@H](C)c1ccccc1)[C@@H](C)c1ccccc1)[C@@H](C)c1ccccc1)[C@@H](C)c1ccccc1)[C@@H](C)c1ccccc1)[C@@H](C)c1ccccc1	human erythrocytes	73 µM
CC[C@H](C)N(CC(=O)N(CC(N)=O)[C@@H](C)c1ccc2ccccc2c1)C(=O)CN(CCCCN)C(=O)CN(C(=O)CN(C(=O)CN(CCCCN)C(=O)CN(C(=O)CN(C(=O)CN(CCCCN)C(=O)CN(C(=O)CN(C(=O)CNCCCCN)[C@@H](C)CC)[C@@H](C)c1ccccc1)[C@@H](C)CC)[C@@H](C)c1ccc2ccccc2c1)[C@@H](C)CC)[C@@H](C)c1ccccc1 [2-Nsna6,12] (H-[Nlys][N(1S-Me-propyl)Gly][Nspe][Nlys][N(1S-Me-propyl)Gly][X3][Nlys][N(1S-Me-propyl)Gly][Nspe][Nlys][N(1S-Me-propyl)Gly][X3]-NH2)	human erythrocytes	> 120 µM
CC[C@H](C)N(CC(=O)N(CC(=O)N(CC(=O)N(CCCCN)CC(N)=O)[C@@H](C)c1ccccc1)[C@@H](C)CC)C(=O)CN(CCCCN)C(=O)CN(C(=O)CN(CCCCN)C(=O)CN(C(=O)CN(C(=O)CN(C(=O)CN(C(=O)CNCCCCN)[C@@H](C)CC)[C@@H](C)c1ccccc1)[C@@H](C)CC)[C@@H](C)c1ccccc1)[C@@H](C)c1ccccc1 [2scrambled] (H-[Nlys][N(1S-Me-propyl)Gly][Nspe][N(1S-Me-propyl)Gly][Nspe][Nlys][Nspe][Nlys][N(1S-Me-propyl)Gly][N(1S-Me-propyl)Gly][Nspe][Nlys]-NH2)	human erythrocytes	>120/>120 μM
C[C@@H](c1ccccc1)N(CC(N)=O)C(=O)CN(C(=O)CN(CCCCN)C(=O)CN(C(=O)CN(C(=O)CN(CCCCN)C(=O)[C@@H]1CCCN1C(=O)CN(C(=O)CN(CCCCN)C(=O)CN(C(=O)CN(C(=O)CNCCCCN)[C@@H](C)c1ccccc1)[C@@H](C)c1ccccc1)[C@@H](C)c1ccccc1)[C@@H](C)c1ccccc1)[C@@H](C)c1ccccc1)[C@@H](C)c1ccccc1 [1-Pro6] (H-[Nlys][Nspe][Nspe][Nlys][Nspe]P[Nlys][Nspe][Nspe][Nlys][Nspe][Nspe]-NH2)	human erythrocytes	> 110 µM

Qu. Give its HD50 (50% hemolytic dose) value. Item: CCC[C@H](C)N(CC(=O)N(CC(N)=O)[C@@H](C)c1ccccc1)C(=O)CN(CCCCN)C(=O)CN(C(=O)CN(C(=O)CN(CCCCN)C(=O)CN(C(=O)CN(C(=O)CN(CCCCN)C(=O)CN(C(=O)CN(C(=O)CNCCCCN)[C@@H](C)CCC)[C@@H](C)c1ccccc1)[C@@H](C)CCC)[C@@H](C)c1ccccc1)[C@@H](C)CCC)[C@@H](C)c1ccccc1 [2-Nsap2,5,8,11] (H-[Nlys][X2][Nspe][Nlys][X2][Nspe][Nlys][X2][Nspe][Nlys][X2][Nspe]-NH2)
Ans. >120/>120 μM

Qu. For the compound shown here, C[C@@H](c1ccccc1)N(CC(=O)N(CCc1cnc[nH]1)CC(=O)N(CCCCN)CC(=O)N(CC(=O)N(CC(=O)N(CCCCN)CC(=O)N(CC(=O)N(CCc1cnc[nH]1)CC(N)=O)[C@@H](C)c1ccccc1)[C@@H](C)c1ccccc1)[C@@H](C)c1ccccc1)C(=O)CN(CCCCN)C(=O)CN(C(=O)CN(C(=O)CNCCCCN)[C@@H](C)c1ccccc1)[C@@H](C)c1ccccc1 [1-Nhis6,12] (H-[Nlys][Nspe][Nspe][Nlys][Nspe][Gly(N-CH2CH2-imidazol-4-yl)][Nlys][Nspe][Nspe][Nlys][Nspe][Gly(N-CH2CH2-imidazol-4-yl)]-NH2) , give the reported HD50 (50% hemolytic dose).
Ans. >110/>110 μM

Qu. Looking for the measured HD50 (50% hemolytic dose) of C[C@@H](c1ccccc1)N(CC(N)=O)C(=O)CN(C(=O)CN(CCC(=O)O)C(=O)CN(C(=O)CN(C(=O)CN(CCCCN)C(=O)CN(C(=O)CN(C(=O)CN(CCC(=O)O)C(=O)CN(C(=O)CN(C(=O)CNCCCCN)[C@@H](C)c1ccccc1)[C@@H](C)c1ccccc1)[C@@H](C)c1ccccc1)[C@@H](C)c1ccccc1)[C@@H](C)c1ccccc1)[C@@H](C)c1ccccc1)[C@@H](C)c1ccccc1 , can you help?
Ans. 40 µM

Qu. Which HD50 (50% hemolytic dose) value is on record for C[C@@H](c1ccccc1)N(CC(N)=O)C(=O)CN(C(=O)CN(CCCCN)C(=O)CN(C(=O)CN(C(=O)CN(CCCCN)C(=O)CN(C(=O)CN(C(=O)CN(CCCCN)C(=O)CN(C(=O)CN(C(=O)CN(CCCCN)C(=O)CN(C(=O)CN(C(=O)CNCCCCN)[C@@H](C)c1ccccc1)[C@@H](C)c1ccccc1)[C@@H](C)c1ccccc1)[C@@H](C)c1ccccc1)[C@@H](C)c1ccccc1)[C@@H](C)c1ccccc1)[C@@H](C)c1ccccc1)[C@@H](C)c1ccccc1)[C@@H](C)c1ccccc1 ?
Ans. 19 µM

Qu. Using the record for C[C@@H](c1ccccc1)N(CC(N)=O)C(=O)CN(C(=O)CN(CCC(=O)O)C(=O)CN(C(=O)CN(C(=O)CN(CCC(=O)O)C(=O)CN(C(=O)CN(C(=O)CN(CCC(=O)O)C(=O)CN(C(=O)CN(C(=O)CNCCC(=O)O)[C@@H](C)c1ccccc1)[C@@H](C)c1ccccc1)[C@@H](C)c1ccccc1)[C@@H](C)c1ccccc1)[C@@H](C)c1ccccc1)[C@@H](C)c1ccccc1)[C@@H](C)c1ccccc1 , report its HD50 (50% hemolytic dose).
Ans. >110/>110 μM

---

# experimentalProtocol: MTS assay, metabolic inhibition
# Format: cell-based, mouse
Square brackets hold non-standard residues; d marks the D form. Peptide text beside a SMILES is read from it. Nspe = C[C@H](NCC(=O)O)c1ccccc1; Nphe = O=C(O)CNCc1ccccc1; Nlys = NCCCCNCC(=O)O
measuredQuantity: IC50 (µM)
Number in µM, nothing else.

Qu. Endpoint output: IC50 of C[C@@H](c1ccccc1)N(CC(=O)N(CC(=O)N(CCCCN)CC(=O)N(CC(=O)N(CC(=O)N(CCCCN)CC(=O)N(CC(=O)N(CC(=O)N(CCCCN)CC(=O)N(CC(=O)N(CC(N)=O)Cc1ccccc1)Cc1ccccc1)Cc1ccccc1)Cc1ccccc1)Cc1ccccc1)Cc1ccccc1)Cc1ccccc1)C(=O)CNCCCCN [1ach-Nspe2, H-(Nlys-Nspe-Npm)-(Nlys-Npm-Npm)3-NH2] (H-[Nlys][Nspe][Nphe][Nlys][Nphe][Nphe][Nlys][Nphe][Nphe][Nlys][Nphe][Nphe]-NH2) . Value?
Ans. 11

---

# System: B. subtilis
# Format: cell-based
# Procedure: Antibacterial assays. MICs were determined according to CLSI M7-A6 protocols in a 96-well microtiter plate. In test wells, 50 μL bacterial inoculum (5×10^5 CFU/ml) in Mueller-Hinton broth (MHB) was added to 50 μL peptoid solution in MHB (prepared by 1:2 serial dilutions). Positive controls contained 50 μL inoculum and 50 μL MHB without peptoid. […] Screening antibacterial assays. MICs were determined in 96-well microtiter plates in accordance with CLSI M7-A6 protocols. […]
Square brackets hold non-standard residues; d marks the D form. Peptide text beside a SMILES is read from it. Nspe = C[C@H](NCC(=O)O)c1ccccc1; NDecylGly = CCCCCCCCCCNCC(=O)O; NPentylGly = CCCCCNCC(=O)O; Nlys = NCCCCNCC(=O)O
Catalogue of molecules with associated B. subtilis MIC
Reply with just the number (in µM).

molecule	unitText	reportedResult
CCCCCNCC(=O)N(CCCCN)CC(=O)N(CC(=O)N(CC(=O)N(CCCCN)CC(=O)N(CC(=O)N(CC(N)=O)[C@@H](C)c1ccccc1)[C@@H](C)c1ccccc1)[C@@H](C)c1ccccc1)[C@@H](C)c1ccccc1 [C5-16 mer] (H-[NPentylGly][Nlys][Nspe][Nspe][Nlys][Nspe][Nspe]-NH2)	µM	3.1
CCCCCNCC(=O)N(CCCCN)CC(=O)N(CC(=O)N(CC(=O)N(CCCCN)CC(=O)N(CC(=O)N(CC(=O)N(CCCCN)CC(=O)N(CC(=O)N(CC(=O)N(CCCCN)CC(=O)N(CC(=O)N(CC(N)=O)[C@@H](C)c1ccccc1)[C@@H](C)c1ccccc1)[C@@H](C)c1ccccc1)[C@@H](C)c1ccccc1)[C@@H](C)c1ccccc1)[C@@H](C)c1ccccc1)[C@@H](C)c1ccccc1)[C@@H](C)c1ccccc1 [C5-1] (H-[NPentylGly][Nlys][Nspe][Nspe][Nlys][Nspe][Nspe][Nlys][Nspe][Nspe][Nlys][Nspe][Nspe]-NH2)	µM	1.6
CCCCCCCCCCNCC(=O)N(CCCCN)CC(=O)N(CC(=O)N(CC(=O)N(CCCCN)CC(N)=O)[C@@H](C)c1ccccc1)[C@@H](C)c1ccccc1 [C10-14 mer] (H-[NDecylGly][Nlys][Nspe][Nspe][Nlys]-NH2)	µM	6.3
CCCCCNCC(=O)N(CCCCN)CC(=O)N(CC(=O)N(CC(=O)N(CCCCN)CC(=O)N(CC(=O)N(CC(=O)N(CCCCN)CC(=O)N(CC(=O)N(CC(N)=O)[C@@H](C)c1ccccc1)[C@@H](C)c1ccccc1)[C@@H](C)c1ccccc1)[C@@H](C)c1ccccc1)[C@@H](C)c1ccccc1)[C@@H](C)c1ccccc1 [C5-19 mer] (H-[NPentylGly][Nlys][Nspe][Nspe][Nlys][Nspe][Nspe][Nlys][Nspe][Nspe]-NH2)	µM	1.0
CCCCCCCCCCNCC(=O)N(CCCCN)CC(=O)N(CC(=O)N(CC(=O)N(CCCCN)CC(=O)N(CC(=O)N(CC(=O)N(CCCCN)CC(=O)N(CC(=O)N(CC(N)=O)[C@@H](C)c1ccccc1)[C@@H](C)c1ccccc1)[C@@H](C)c1ccccc1)[C@@H](C)c1ccccc1)[C@@H](C)c1ccccc1)[C@@H](C)c1ccccc1 [C10-19 mer] (H-[NDecylGly][Nlys][Nspe][Nspe][Nlys][Nspe][Nspe][Nlys][Nspe][Nspe]-NH2)	µM	3.1
CCCCCCCCCCNCC(=O)N(CCCCN)CC(=O)N(CC(=O)N(CC(=O)N(CCCCN)CC(=O)N(CC(=O)N(CC(=O)N(CCCCN)CC(=O)N(CC(=O)N(CC(=O)N(CCCCN)CC(=O)N(CC(=O)N(CC(N)=O)[C@@H](C)c1ccccc1)[C@@H](C)c1ccccc1)[C@@H](C)c1ccccc1)[C@@H](C)c1ccccc1)[C@@H](C)c1ccccc1)[C@@H](C)c1ccccc1)[C@@H](C)c1ccccc1)[C@@H](C)c1ccccc1 [C10-1] (H-[NDecylGly][Nlys][Nspe][Nspe][Nlys][Nspe][Nspe][Nlys][Nspe][Nspe][Nlys][Nspe][Nspe]-NH2)	µM	1.6
CCCCCCCCCCNCC(=O)N(CCCCN)CC(=O)N(CC(=O)N(CC(=O)N(CCCCN)CC(=O)N(CC(=O)N(CC(N)=O)[C@@H](C)c1ccccc1)[C@@H](C)c1ccccc1)[C@@H](C)c1ccccc1)[C@@H](C)c1ccccc1 [C10-16 mer] (H-[NDecylGly][Nlys][Nspe][Nspe][Nlys][Nspe][Nspe]-NH2)	µM	1.6

Qu. Name the recorded B. subtilis MIC for C[C@@H](c1ccccc1)N(CC(N)=O)C(=O)CN(C(=O)CN(CCCCN)C(=O)CN(C(=O)CN(C(=O)CN(CCCCN)C(=O)CN(C(=O)CN(C(=O)CNCCCCN)[C@@H](C)c1ccccc1)[C@@H](C)c1ccccc1)[C@@H](C)c1ccccc1)[C@@H](C)c1ccccc1)[C@@H](C)c1ccccc1 [19 mer, H-(Nlys-Nspe-Nspe)3-NH2] (H-[Nlys][Nspe][Nspe][Nlys][Nspe][Nspe][Nlys][Nspe][Nspe]-NH2) .
Ans. 1.6
